test system: SNB-75 CNS; test: NCI-60 one-dose screen, 48 h; conditions: 10 µM unless noted
This is part of a sample that, as a whole, favours compounds with a hit. Of some 83,000 tested, about 20% had one in any assay. Calls of active or inactive are those of the source. The calls were made as follows: active = growth percent below 10; inactive = the rest.
Output constraint: value belongs to Y = active, N = inactive

| compound | measurement_target | label |
| --- | --- | --- |
| C[C@]12CC[C@H]3[C@@H](CC=C4c5nc(N)sc5CC[C@@]43C)[C@@H]1CC[C@@H]2O | SNB-75 CNS | N |

Input: Recorded test outcome, item C[N+]1(C)CCCC1c1cccnc1 (centres undefined)
Output: N

Input: Recorded test outcome, item C[C@]12CC[C@H]3[C@@H](CC=C4c5nc(-c6ccc(Br)cc6)sc5CC[C@@]43C)[C@@H]1CC[C@@H]2O
Output: N

Input: Recorded test outcome, item Cc1nnc([S-])o1.[Au+].c1ccc([PH+](c2ccccc2)c2ccccc2)cc1
Output: N

Input: Recorded test outcome, item C[C@]12CCC(=O)C[C@@H]1CC[C@@H]1[C@@H]2CC[C@]2(C)[C@@H](OC(=O)N(CCCl)N=O)CC[C@@H]12
Output: N

Input: Recorded test outcome, item C[Se]/C=C1/C(=O)N(c2c(Cl)cccc2Cl)c2ccccc21
Output: Y

Input: Recorded test outcome, item N#CCC(=O)c1ccccc1
Output: N

Input: Recorded test outcome, item O=C(CBr)OCCOC(=O)CBr
Output: N

Input: Recorded test outcome, item CSc1cc(/C=C(\C)[C@@H]2C[C@@H]3O[C@]3(C)CCC[C@H](C)[C@H](O)[C@@H](C)C(=O)C(C)(C)[C@@H](O)CC(=O)O2)n(CCNC(=O)OC(C)(C)C)n1
Output: N

Input: Recorded test outcome, item CC1(C)N(Nc2ccccc2)C(=O)C2CCCN21 (centres undefined)
Output: N
